# Test system: L1210 leukemia ip in BDF1 mice, survival T/C
# ASSAY_PROCEDURE: NCI In Vivo Anticancer Drug Screen. Data for tumor model L1210 Leukemia (intraperitoneal) in B6D2F1 (BDF1) mice
# EXPERIMENTAL_PARAMETERS: endpoint: mean survival time; dose: 200.0 mg/kg/injection; schedule: Q04DX003 (ip); vehicle: other; higher = longer survival
Inconclusive results and toxic doses are left out.
MEASUREMENT_TYPE: T/C

[[record]]
molecule = "COC(=O)Nc1ccccc1[N+](=O)[O-]"
target_of_assay = "L1210 leukemia ip in BDF1 mice, survival T/C"
result = "101 % of control"

[[record]]
molecule = "CC(C)CC(NC(=O)CNC(=O)OCc1ccccc1)C(=O)OCc1ccccc1 (configuration not stated)"
target_of_assay = "L1210 leukemia ip in BDF1 mice, survival T/C"
result = "108 % of control"

[[record]]
molecule = "COC(=O)C(NC(=O)CCl)C(=O)OC"
target_of_assay = "L1210 leukemia ip in BDF1 mice, survival T/C"
result = "93 % of control"

[[record]]
molecule = "O=C(OC1C=CCC=C1)c1cc([N+](=O)[O-])cc([N+](=O)[O-])c1"
target_of_assay = "L1210 leukemia ip in BDF1 mice, survival T/C"
result = "101 % of control"

[[record]]
molecule = "OC(c1ccccc1)C(c1ccccc1)C1CO1 (configuration not stated)"
target_of_assay = "L1210 leukemia ip in BDF1 mice, survival T/C"
result = "103 % of control"

[[record]]
molecule = "COc1cccc(CNc2cccc(Cl)c2Cl)c1OC"
target_of_assay = "L1210 leukemia ip in BDF1 mice, survival T/C"
result = "96 % of control"

[[record]]
molecule = "Cc1ccc(N=Nc2c(O)ccc3ccccc23)c([N+](=O)[O-])c1"
target_of_assay = "L1210 leukemia ip in BDF1 mice, survival T/C"
result = "91 % of control"

